Tested on: K562-TAX
Assay: MTS cytotoxicity assay, 72 h
Format: cell-based
Details: read-out: IC50 K562-TAX
pIC50: −log10 of the molar value.
readout label: pIC50

>  <compound>
COc1cc2c(c(OC)c1OC)-c1ccc(NCCCCC3=C4C(C)=CC(C)=[N+]4[B-](F)(F)n4c(C)cc(C)c43)c(=O)cc1[C@@H](NC(C)=O)CC2 [CB10]

>  <tested target>
K562-TAX

>  <readout label>
pIC50

>  <result value>
4.83

$$$$
>  <compound>
COc1cc2c(c(OC)c1OC)-c1ccc(OC)c(=O)cc1[C@@H](n1cc(CCCCCCCCC3=C4C(C)=CC(C)=[N+]4[B-](F)(F)n4c(C)cc(C)c43)nn1)CC2 [CB5]

>  <tested target>
K562-TAX

>  <readout label>
pIC50

>  <result value>
6.05

$$$$
>  <compound>
COc1cc2c(c(OC)c1OC)-c1ccc(OC)c(=O)cc1[C@@H](n1cc(CCCC3=C4C(C)=CC(C)=[N+]4[B-](F)(F)n4c(C)cc(C)c43)[n+](C)n1)CC2 [CB7]

>  <tested target>
K562-TAX

>  <readout label>
pIC50

>  <result value>
6.21

$$$$
